- test_summary: yeast display, Sf9 membrane polyspecificity reagent, FACS + sequencing; frameworks hold sequencing errors
endpoint_name: polyreactivity (PSR sort gate)

QVQLVESGGGLVQAGGSLRLSCAASGFIFYPYVMGWYRQAPGKERELVATIRTDGRTSYADSVKGRFTISRDNAKNTVYLQMNSLKPEDTAVYYCNTKYVRYYRRYDSWGQGTQVTVSS = high polyreactivity
QVQLVESGGGLVQAGGSLRLSCVPTDMGWYRQAPGKERELVATISLSDGNTYYADSVKGRFTISRDNAKNTVYLQMNSLKPEDTAVYYCNALHTWHQTYDYWGQCTQVTVSS = low polyreactivity
QVQLVESGGGLVQAAGSLRLSCDASGRIFAYYAMGWYRQAPGKERELVAAISRSGVSTYYADSVKGRFTISRDNAKNTVYLQMNSLKPEDTAVYYCAARWRSGFTSGDYWGQGTQVTVSS = low polyreactivity
QVQLVESGGGLVQAGGSLRLSCAPSGSTFRLYAMGWYRQAPGKERELVAVISGSGGNTYDADSVKGRFTISRDNAKNTVELQMNSLKPEDTAVDYCAAYSYRDRDDYWGQGTQGTVSS = high polyreactivity

Next sequence, please.
Which polyreactivity (PSR sort gate) is reported for this sequence? QVQLVESGGGLVQAGGSLRLSCAASGNTLAYYVMGWYRQAPGKERELVAAITSGGTTNYADSVKGRFTISRDNAKNTVYLQMNSLNPEDTAVYYCAGCPSKRPPWLRQGGYDYWGQGTQVTVSS low polyreactivity

###

- test_summary: yeast display, Sf9 membrane polyspecificity reagent, FACS + sequencing; frameworks hold sequencing errors
endpoint_name: polyreactivity (PSR sort gate)

Look over these answered cases.
QVQLVESGGGLVQAGGSLRLSCAASASTFWFNVMGWYRQATGKETELDAVITWTGGSTSYADSVKGRFTISRDNAKNTVYLQMNSLKPEDTAVYYCATPVKFGGVPYRYGYWGQGTQVTVSS = low polyreactivity
QVQLVESGGGLVQAGGSLRISCAASGRILLRNVMGWYRQAPGKERELVAVITRTGITYYAYSVKGRFTISRDNAKNTVYLQMNSLKPEDTAVYYCAAGLPKYEHDYWGQGTQVTVSS = low polyreactivity
QVQLVESGGGLVQAGGSLRLSCAASGYIFADYAMGWYRQAPGKEREFVARIRYRDGSTYYADSVKGRFTISRDNAKNTVYLQMNSLKPEDTAVYYCAAQLGRYSYYPMDYWGKGTQVTVSS = high polyreactivity
QVQLVESGGGLVQAGGSLRLSCAASGFILYYNAMGWYRQAPGKERELVADISRRGTSTYYADSVKGRFTISRDNAKNTVYLQMNRLKPEDTAVYYCKAVPSARTQPYNGWGQGTQVTVSS = high polyreactivity
QVQLVESGGGLDQAGGSLRLSCAASGSIFLRYAMGWYRQAPGKERELVAAITTGGGSTYYADSVKGRFTISRDNAKNTVYLQMNSLKPEDTAVYYCAKRAQYHWRGRDDYSYYYWGQGTQVTVSS = low polyreactivity
QVQLVESGGGLVQAGGSLRLSCAASGSTFWDYDMGWYRQAPGKERELVASIRNGGSTNYADSVKGRFTISRDNAKNTVYLQMNSLKPEDTAVYYCAADRQPVYPSLGVYWDYGHDYWGQGTQVTVSS = low polyreactivity
QVQLVESGGGLVQAGGSLRLSCAASGFTFYLYTMGWYLQAPGKERELVATITSDGGTNYADSVKGRFTISRDNAKNTVYLQMNSLKPEDTAVYYCNAASRRGSRKQAKYDYWGQGTQVTVSS = low polyreactivity
QVQLVESGGGLVQAGGSLRLSCAASGFTFHSYAMGWYRQAPGKERELVAAISRGGGSTYYADSVKGRFTISRDNAKYTVYLQMNSLKPEDTAVYYCAARGQGGYRVGYYYWGQGTQVTVSS = high polyreactivity

Go through the items and report each one's polyreactivity (PSR sort gate).
1. QVQLVESGGGLVQAGGSLRLSCAASGSTFVSYAMGWYRQAPGKERELVAAITWRGDSTYYADSVKGRFTISRDNAKNTVYLQMNSLKPEDTAVYYCAADGRSWRYYSPYYYWGQGTQVTVSS
2. QVQLVESGGGLVQAGGSLRLSCAASGFTFPVNAMGWYRQAPGKERELVAAITKRGGGTYYADSVKGRFTISRDNAKNTVYLQMNSLKPEDTAVYYCAARSFWPYYGGDYDYWGQGTQVTVSS
3. QVQLVESVGGLVQAGGSLPLSCAASGSTFVDYDMGWYRQAPGKERELVAAITYSGARTYYADSVKGRFTISRDNAKNTVYLQMNSLTPEDSAVYYGNADQRTASDQLEFDYWGQGTQVTVSS
4. QVQLVESGGGLVQAGGSLRLSCAASGSIFYSNAMGWYRQAPGKERELVARITWSGGSTYYADSVKGRFTISRDNAKNTVYLQMNSLKPEDTAVYYCNKVIFRYFTTRPTRTYEYWGQGTQVTVSS
5. QVQLVESGGGLVQAGGSLRLSCAASGIIFYTNAMGWYRQAPGKEREFVAAINTSGGITYYADSVKGRFTISRDNAKNTVYLQMNSLKPEDTAVYYCAADQTYERHWVYYWGQGTQVTVSS

low polyreactivity
high polyreactivity
low polyreactivity
low polyreactivity
low polyreactivity
